Below: a set of entries, each annotated with reported EC50.
# Test system: HCV replicon (BB7 sequence) in Huh-7-Clone A cells
# TEST NAME: HCV replicon assay: ELISA of NS5A protein in replicon-containing cells (Inhibition of Viral RNA Replication)
# Assay type: cell-based
# SETUP CONDITIONS: Hepatitis C virus; HCV replicon assay; ranges of EC50; read-out: Replicon

Guide cases for EC50, answers given:
{"STRUCTURE AS SMILES": "CNC(=O)c1c(-c2ccc(F)cc2)oc2cc(N(Cc3csc(C)n3)S(C)(=O)=O)c(OC(C)C)cc12", "ASSAY SYSTEM": "HCV replicon (BB7 sequence) in Huh-7-Clone A cells", "READOUT VALUE": "< 10000 nM"}
{"STRUCTURE AS SMILES": "CNC(=O)c1c(-c2ccc(F)cc2)oc2cc(-c3cc(COC)on3)c(OC(C)C)cc12", "ASSAY SYSTEM": "HCV replicon (BB7 sequence) in Huh-7-Clone A cells", "READOUT VALUE": "< 1000 nM"}
{"STRUCTURE AS SMILES": "CNC(=O)c1c(-c2ccc(F)cc2)oc2cc(N(Cc3cscn3)S(C)(=O)=O)c(OC)cc12", "ASSAY SYSTEM": "HCV replicon (BB7 sequence) in Huh-7-Clone A cells", "READOUT VALUE": "< 1000 nM"}
{"STRUCTURE AS SMILES": "CNC(=O)c1c(-c2ccc(F)cc2)oc2cc(N(C)S(C)(=O)=O)c(OCc3ccc4c(c3)C(=O)OC(C)(C)O4)cc12", "ASSAY SYSTEM": "HCV replicon (BB7 sequence) in Huh-7-Clone A cells", "READOUT VALUE": "< 1000 nM"}

Now examine the next entry.
Prompt line: Reported EC50 for "CNC(=O)c1c(-c2ccc(F)cc2)oc2cc(N3CCOCC3)c(OCc3ccc(C(=O)OC)cc3)cc12" : what is it?
Response line: < 10000 nM

---

Below: a set of entries, each annotated with reported EC50.
# Tested on: HCV replicon (BB7 sequence) in Huh-7-Clone A cells
# TEST NAME: HCV replicon assay: ELISA of NS5A protein in replicon-containing cells (Inhibition of Viral RNA Replication)
# Assay type: cell-based
# SETUP CONDITIONS: Hepatitis C virus; HCV replicon assay; ranges of 50% effective concentration (EC50); read-out: Replicon

Guide cases for EC50, answers given:
{"STRUCTURE AS SMILES": "CNC(=O)c1c(-c2ccc(F)cc2)oc2ccc(OCc3cscn3)cc12", "EC50": "> 30000 nM"}
{"STRUCTURE AS SMILES": "CNC(=O)c1c(-c2ccc(F)cc2)oc2cc(N(C)S(C)(=O)=O)c(OCCn3nc(C)cc3C)cc12", "EC50": "< 1000 nM"}
{"STRUCTURE AS SMILES": "CNC(=O)c1c(-c2ccc(F)cc2)oc2cc(N(C)S(C)(=O)=O)c(OCc3cc(C)on3)cc12", "EC50": "< 1000 nM"}
{"STRUCTURE AS SMILES": "CNC(=O)c1c(-c2ccc(F)cc2)oc2cc(-c3c(C)noc3C)c(OCc3cc(C)on3)cc12", "EC50": "< 1000 nM"}
{"STRUCTURE AS SMILES": "CNC(=O)c1c(-c2ccc(F)cc2)oc2cc(N(Cc3cccc(CBr)n3)S(C)(=O)=O)c(OCc3cccc(CBr)n3)cc12", "EC50": "< 10000 nM"}

Prompt line: Reported EC50 for "CNC(=O)c1c(-c2ccc(F)cc2)oc2cc(C(C)(C)NS(C)(=O)=O)c(OC)cc12" : what is it?
Response line: < 10000 nM

Prompt line: Another: "CNC(=O)c1c(-c2ccc(F)cc2)oc2cc(N(C)S(C)(=O)=O)c(OCC(=O)OC(C)(C)C)cc12"
Response line: < 1000 nM

Prompt line: Another: "CNC(=O)c1c(-c2ccc(F)cc2)oc2cc(N(C)S(C)(=O)=O)c(OCC#N)cc12"
Response line: < 1000 nM
